Assay: yeast display, Sf9 membrane polyspecificity reagent, FACS + sequencing; frameworks hold sequencing errors
experimental readout: polyreactivity (PSR sort gate)

Here's what some known entries look like.
biopolymer sequence	polyreactivity (PSR sort gate)
QVQLVESGGGLFRAGGSLRLICAASGITFYGYAMGWYRQAPGKERELVAAITWSGGRTYYADSVKGRFTISRDNAKNTVYLQMNSMKPEDTAVYYCARRTWHSVGYWGQGTQVTVSS	high polyreactivity
QVQLVESGGGLVQAGGSLRLSCAASGFIFYRYLMGWYRQAPGKERELVAAISRSGDRTYYADSVKGRFTISRDNAKNTVYLQMNSLKPEDTAVYDCAAALYYFSRGYWGQGTQVTVSS	high polyreactivity
QVQLVESGGGLVQAGGSLRLSCAASGRTFYRYAMGWSRQAPGKERELVATISGSGGSTYYADSVKGRFTISRDNAKNTVYLQMNSLKPEDTAVYYCNAVWRFPIGRTAPRYDYWGQGTQVTVSS	high polyreactivity
QVQLVESGGGLVQAGGSLRLSCAASGSTFGDNAMGWYRQAPGKERELVAAISSSGDSTYYADSVKGRFTISRDNAKNTVYLQMNSLKPEDTAVYYCAADRGSTAGSVTYTPGNYWGQGTQVTVSS	low polyreactivity
QVQLVESGGGLVQVGGSLRLSCAASGSNFPANAMGWYRQAPGKEWEFVAAINWSTGTTYYADSVKGRFTISRDNAKNTVYLQMNSLKPEDTAVYYCNASDQAKYDYWGQGTQVTVSS	low polyreactivity
QVQLVESGGGLVQAGGSLRLSCAASGRTFRDYVMGWYRQAPGKERELVAAISTRGASTYYADSVKGRFTISRDYAKNTVYLQMNSLKPEDTAVYYCAARSTRRGNEYDYWGQGTQVTVSS	high polyreactivity

Consider the additional sequence presented here.
Query: Query (sequence): "QVQLVESGGGLVQAGGSLRLSCAASGRTFNYYAMGWYRQAPGKERELVAAISRSGGSTYYADSVKGRFTISRDNAKNTVYLQMNSLKPEDTAVYYCAVAWNVRGVGARQRYIYGYWGQGTQVTVSS" ; field requested: polyreactivity (PSR sort gate)
Result: high polyreactivity

====

Experiment: yeast display, Sf9 membrane polyspecificity reagent, FACS + sequencing; frameworks hold sequencing errors
experimental readout: polyreactivity (PSR sort gate)

Here's what some known entries look like.
biopolymer sequence	experimental readout	recorded value
QVQLVESGGGLVQAGGSLRLSCAASGRIFYAYVMGWYRQAPGKERELVADITSSGSTNYADSVKGRFTISRDNAKNTVYLQMNSLKPEDTAVYYCAKVPYAYQVRRKFGYWGQGTQVTVSS	polyreactivity (PSR sort gate)	low polyreactivity
QVQLVESGGGLLQAGGSLRLSCAASGSLFGGYAMAWYRQAPGKEREFGAAISGRGASTYYADSVKGRFTISRDNAKTTVYLQMNSLKPEDTAVYDCNARADGRIDGHSATYGYWGQGTQVTVSS	polyreactivity (PSR sort gate)	high polyreactivity
QVQLVESGGGLVQAGGSLRLSCAASGSSVYSYAMGWYRQAPGKERELVAAISWRGGSTYYADSVKGRFTISRDNAKNTVYLQMNSLKPEDTAVYYCAAYYYTGPTTVESDYWGQGTQVTVSS	polyreactivity (PSR sort gate)	high polyreactivity
QVQLVESGGGLVQAGGSLRLSCAASGSTYAYDMGSYRQAPGKERELVAAISWDGGDTYYADSVKGRFTISRDNAKNTVYLQMNSLKPEDTAVYYCNTVFQRSGYAAGVDYWGQGTQVTVSS	polyreactivity (PSR sort gate)	high polyreactivity
QVQLVESGGGLVQAGGSLRLSCAASGSTFDDNAMGWYRQAPGKDRELVAGISTNGGSTSYADSVKGRFTISRDNAKNTVYLPMNSLKPEDTAVYYCAKGLYVQFDYWGQGTQVTVSS	polyreactivity (PSR sort gate)	low polyreactivity

Query: Query (sequence): "QVQLLETGRGLVQAGGSLRISCAASGYTFGVYVMGWYRQAPGQERELVAAISGSTYYADSVNGRFKISRDNAKNTVYLQMNSLKPEDTAVYYCAAESFFFSPRTREIFDYWGQGTQVTVSS" ; field requested: polyreactivity (PSR sort gate)
Result: low polyreactivity

Query: Query (sequence): "QVQLVESGGGLVQAGGSLRLSCAASVFTFSPNAMGWYRQAPGKERELVAAISKRGASTYYADSVKGRFTISRDNAKNTVYLQMNSLKPEDTAVYYCNVGASARKPYDYWGQGTQVTVSS" ; field requested: polyreactivity (PSR sort gate)
Result: high polyreactivity

Query: Query (sequence): "QVQLVESGGGLVQAGASLRLSCAASGRTFEANTMGWYRQAPGKERELVAAITRNGGSTYYADSVKGRFTISRDNAKNTVYLQMNSLKPEDPAVYYCAARSAYRSRHKYDYWGQGTQVTVSS" ; field requested: polyreactivity (PSR sort gate)
Result: high polyreactivity

Query: Query (sequence): "QVQLVESGGGLVQAGGSLRLSCAASGSIIYANAMGWYRQAPGKEREFVATITDSGAITYYADSVKGRFTISRDNAKNTVYLQMISLKPEDTAVYYCNKDLVVYSVPTHDYDYWGQGTQVTVSS" ; field requested: polyreactivity (PSR sort gate)
Result: low polyreactivity

Query: Query (sequence): "QVQLVESGGGLVQAGGSLRLSCASSGRTFYPYAMGWYRQAPGKERDLDAAITWSGGSTYYADSVKGRFTISRDYAKITVYLQMNSLKPEDTAVYYCNATYEAYIYYEYDYWGQGTQVTVSS" ; field requested: polyreactivity (PSR sort gate)
Result: low polyreactivity

Query: Query (sequence): "QVQLVESGGGLVQAGGSLRLSCAASGSTFWDYAMGWYRQAPGKERELVASISSGGRTYYADSVKGRFTISRDNAKNTVYLQMNSLKPEDTAVYYCARRSWWDYYSWGQGTQVTVSS" ; field requested: polyreactivity (PSR sort gate)
Result: high polyreactivity
